Just for reference, patent US12662491B2 is where these values come from.

# measured_on: Zcchc11 enzyme (Homo sapiens, UniProt Q5TAX3)
# Construct: made in house; host or cells: HEK293 cells (Zcchc11); E. coli Rosetta II (LIN28A)
# Sequence (Q5TAX3 212-1420): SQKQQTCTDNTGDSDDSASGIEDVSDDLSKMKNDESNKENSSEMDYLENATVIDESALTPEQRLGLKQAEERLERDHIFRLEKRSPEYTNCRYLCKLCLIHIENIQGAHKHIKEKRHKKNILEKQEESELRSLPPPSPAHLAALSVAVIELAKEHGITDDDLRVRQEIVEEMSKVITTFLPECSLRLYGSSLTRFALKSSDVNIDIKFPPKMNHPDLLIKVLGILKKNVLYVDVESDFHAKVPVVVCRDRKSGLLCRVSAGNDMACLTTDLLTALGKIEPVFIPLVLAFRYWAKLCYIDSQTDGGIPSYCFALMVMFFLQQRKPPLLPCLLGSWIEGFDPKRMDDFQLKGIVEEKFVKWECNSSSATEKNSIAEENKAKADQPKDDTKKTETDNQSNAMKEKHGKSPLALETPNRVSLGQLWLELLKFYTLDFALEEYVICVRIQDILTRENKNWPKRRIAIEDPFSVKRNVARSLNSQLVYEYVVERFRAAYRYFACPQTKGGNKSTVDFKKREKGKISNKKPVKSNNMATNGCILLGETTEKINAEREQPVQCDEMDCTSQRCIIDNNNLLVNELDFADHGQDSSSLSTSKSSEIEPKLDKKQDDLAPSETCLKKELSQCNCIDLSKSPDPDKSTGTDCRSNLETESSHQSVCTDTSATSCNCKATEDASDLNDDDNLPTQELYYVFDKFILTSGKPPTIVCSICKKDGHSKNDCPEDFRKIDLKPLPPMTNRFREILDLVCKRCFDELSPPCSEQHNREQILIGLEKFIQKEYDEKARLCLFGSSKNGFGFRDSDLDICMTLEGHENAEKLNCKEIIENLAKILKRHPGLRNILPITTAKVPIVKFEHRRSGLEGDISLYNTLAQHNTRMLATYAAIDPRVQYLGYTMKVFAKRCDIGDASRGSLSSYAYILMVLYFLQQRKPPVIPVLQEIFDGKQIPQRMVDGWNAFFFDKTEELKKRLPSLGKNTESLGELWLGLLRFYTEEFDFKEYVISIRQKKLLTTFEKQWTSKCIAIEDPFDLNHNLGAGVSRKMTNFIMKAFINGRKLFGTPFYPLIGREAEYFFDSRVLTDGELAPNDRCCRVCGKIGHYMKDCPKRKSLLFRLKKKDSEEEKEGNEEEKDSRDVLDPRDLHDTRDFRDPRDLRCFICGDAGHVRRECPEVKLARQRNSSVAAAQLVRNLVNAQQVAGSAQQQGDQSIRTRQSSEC
# assay_method_text: TUTase assay (Zcchc11 assay, Lin28a-dependent polyuridylation of pre-let-7)
# Format: biochemical
# conditions_used: Lin28a-dependent Zcchc11 (Z11) TUTase activity; read-out: Potency Lin28a-dep Z11 IC50
pIC50: −log10 of the molar value.
quantity_name: pIC50

Study these solved cases before continuing.
>  <compound>
O=C(O)c1cn(-c2cc(F)ccc2Cl)c2cc(N3CCC[C@@H]3COc3ccccn3)c(F)cc2c1=O

>  <pIC50>
5.00 to 6.00

$$$$
>  <compound>
CN(C)c1ccc(Cl)c(OC[C@H]2C[C@@H]3C[C@@H]3N2c2cc3c(cc2F)c(=O)c(C(=O)O)cn3-c2ccc(N3CC(N(C)C)C3)nc2)n1

>  <pIC50>
≥ 6.00

$$$$
>  <compound>
O=C(O)c1cn(-c2ccccc2)c2cc(N3CCC[C@@H]3COc3ccccn3)c(F)cc2c1=O

>  <pIC50>
≥ 6.00

$$$$

Name the recorded pIC50 of the item CN(C)C1CN(c2ccc(-n3cc(C(=O)O)c(=O)c4cc(F)c(N5CC(c6cccnc6)C[C@@H]5COc5ncccc5Cl)cc43)cn2)C1 (stereo partly shown) [Compound 325] in your answer.
≥ 6.00
